assay.explanation: NCI Yeast Anticancer Drug Screen. Data for the mlh1 rad18 strain (AID 175)
condition.description: S. cerevisiae mlh1 rad18 strain growth inhibition; at 50.0 µM; hits give high values
About 79,000 compounds went through this panel and 15% of them were active in at least one assay; those are over-represented in the sample as a whole.
Give growth inhibition for every item shown.
One number for each entry, in %.

Solved cases (5 shown):
compound	growth inhibition / %
COc1ccc(-c2cc(-c3ccccc3)[nH]c(=S)c2C#N)cc1	-30.1
Cc1[nH]c(=O)c(C#N)c(C)c1-c1ccccc1	1.85
O=c1[nH][nH]c(=O)n2c1cc1oc(-c3ccccc3)cc12	22.7
Cc1ccc(C(=O)c2ccccc2)cc1C[N+](C)(C)C	4.9
CCCC1C(C#N)(C#N)C(C#N)=C(N)C1(C)C(C)=O (centres undefined)	-34.9

For each of the compounds below, state growth inhibition.
1. CCc1cccc[n+]1CC(=O)c1ccccc1
2. COc1cc(C(OC(C)=O)OC(C)=O)c(Cl)cc1OC(C)=O
3. OCCOCCNc1ncnc2cc(Cl)ccc12

Completion:
12
11.8
4.2

For each of the compounds below, state growth inhibition.
1. O=NN(CCCl)C(=O)NC1CCC(O)CC1 (centres undefined)
2. CC(=O)Oc1cc2c(c3ccccc13)CCC2=O
3. CC(C)NNC(=O)c1ccc(N)cc1
4. CC(=O)OCC1OC(OC(C)=O)C(NC(=O)C[NH-])C(OC(C)=O)C1OC(C)=O.CC(=O)OCC1OC(OC(C)=O)C(NC(=O)C[NH-])C(OC(C)=O)C1OC(C)=O.[Cl][Pt+2][Cl] (centres undefined)
5. O=c1[nH]c2c(Cl)c(Cl)cc(Cl)c2o1
6. N#CC(=C1c2ccccc2-c2ccccc21)c1ccccc1
7. CCOC1NC(=O)c2ccccc21 (centres undefined)

Completion:
1: -4.2; 2: 6.05; 3: 6.35; 4: 21.9; 5: 43.6; 6: -20.5; 7: 12.8
